# Assay system: DPP-IV (Homo sapiens, UniProt P27487)
# Construct: purchased Enzyme Systems Products SPE-01
# Sequence (P27487 whole entry, species assumed): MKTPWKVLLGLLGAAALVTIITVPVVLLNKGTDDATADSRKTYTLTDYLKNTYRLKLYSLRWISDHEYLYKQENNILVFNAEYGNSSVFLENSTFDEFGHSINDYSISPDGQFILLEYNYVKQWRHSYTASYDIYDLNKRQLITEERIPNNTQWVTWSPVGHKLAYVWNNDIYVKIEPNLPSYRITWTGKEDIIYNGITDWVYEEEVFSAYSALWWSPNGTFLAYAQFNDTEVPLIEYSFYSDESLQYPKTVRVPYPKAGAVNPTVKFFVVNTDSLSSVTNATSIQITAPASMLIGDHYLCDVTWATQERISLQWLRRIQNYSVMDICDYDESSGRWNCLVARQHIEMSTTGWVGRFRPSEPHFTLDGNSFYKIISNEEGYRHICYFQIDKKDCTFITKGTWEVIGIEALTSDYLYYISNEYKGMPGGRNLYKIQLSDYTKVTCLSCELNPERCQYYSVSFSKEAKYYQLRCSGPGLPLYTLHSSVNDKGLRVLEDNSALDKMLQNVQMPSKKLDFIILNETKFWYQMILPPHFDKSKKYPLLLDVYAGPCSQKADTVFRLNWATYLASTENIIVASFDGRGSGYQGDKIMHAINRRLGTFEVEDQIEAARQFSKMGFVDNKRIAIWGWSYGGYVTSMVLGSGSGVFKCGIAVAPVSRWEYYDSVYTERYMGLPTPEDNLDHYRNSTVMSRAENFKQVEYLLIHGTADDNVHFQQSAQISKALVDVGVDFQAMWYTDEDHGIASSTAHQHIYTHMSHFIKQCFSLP
# Protocol summary: In vitro assay for dipeptidyl peptidase inhibition
# Format: biochemical
# Condition: n-value given in brackets; read-out: DPP-IV IC50
pIC50: −log10 of the molar value. Where a name gives a salt, the structure may show the parent alone.
Readout name: pIC50

Compound: N[C@H]1CN(c2ncnc(N3C[C@@H](F)[C@@H](F)C3)n2)C[C@@H]1N1CCCCC1=O [Example 28]
Assay result: 7.17
//
Compound: N[C@H]1CN(c2cc(N3CCC(F)(F)C3)nc(C3CC3)n2)C[C@@H]1N1CCCCC1=O [Example 17]
Assay result: 6.96

A. N[C@H]1CN(C(=O)c2cc3cc(Cl)ccc3o2)C[C@@H]1N1CCCCC1=O [Example 154, hydrochloride]
B. N[C@H]1CN(c2ncnc3cc(OCC(F)(F)F)ccc23)C[C@@H]1N1CCCCC1=O [Example 122]
Exercise: Input pair: A , B . Output: entry with lower pIC50. Please indicate the selected item by its label.
Solution: B
(B: 6.83, A: 7.03)

---

# Assay system: DPP-IV (Homo sapiens)
# Construct: purchased Enzyme Systems Products SPE-01
# Protocol summary: In vitro assay for dipeptidyl peptidase inhibition
# Assay type: biochemical
# Condition: n-value given in brackets; read-out: DPP-IV IC50
Readout name: IC50 (µM)

Molecule: COc1nc(OC)nc(N2C[C@H](N)[C@@H](N3CCCCC3=O)C2)n1 [Example 147]
Output unit: µM
IC50: 0.133
--
Molecule: N[C@H]1CN(c2ncnc(N3CCc4ccccc4C3)n2)C[C@@H]1N1CCCCC1=O [Example 56]
Output unit: µM
IC50: 0.0853
--
Molecule: N[C@H]1CN(c2ncnc(N3C[C@H](F)[C@@H](F)C3)n2)C[C@@H]1N1CCCCC1=O [Example 30]
Output unit: µM
IC50: 0.104
--
Molecule: N[C@H]1CN(c2ncnc3cc(OCc4ccccc4)ccc23)C[C@@H]1N1CCCCC1=O [Example 114]
Output unit: µM
IC50: 0.109
--
Molecule: N[C@H]1CN(c2ncnc3cc(Oc4ccc(C(F)(F)F)cn4)ccc23)C[C@@H]1N1CCCCC1=O [Example 127]
Output unit: µM
IC50: 0.137
--
Molecule: N[C@H]1CN(c2ncnc(N3CC[C@H](F)C3)n2)C[C@@H]1N1CCCCC1=O [Example 25]
Output unit: µM
IC50: 0.0802
--
Molecule: N[C@H]1CN(c2ncnc(N3CC[C@@H](NC(=O)C(F)(F)F)C3)n2)C[C@@H]1N1CCCCC1=O [Example 42]
Output unit: µM
IC50: 0.08
--
Molecule: N[C@H]1CN(c2ncnc(N3CCS(=O)(=O)CC3)n2)C[C@@H]1N1CCCCC1=O [Example 68]
Output unit: µM
IC50: 0.141
--
Molecule: N[C@H]1CN(C(=O)c2cc3cc(Cl)ccc3o2)C[C@@H]1N1CC(F)(F)CCC1=O [Example 153]
Output unit: µM
IC50: 0.0786
--
Molecule: COc1ccc2oc(C(=O)N3C[C@H](N)[C@@H](N4CC(F)(F)CCC4=O)C3)cc2c1 [Example 155]
Output unit: µM
IC50: 0.102
